Listed next: entries and their corresponding pKd.
subject.of.test: HLA-B*44:02
assay.name: IEDB peptide-MHC binding, purified MHC/competitive/radioactivity; filed as Kd, often an IC50 or EC50 that approximates it; bounds were set here for any values at or beyond the usual limits of such assays
setup.conditions: source organism: Dengue virus 4 Philippines/H241/1956
pKd: −log10 of the molar value.
readout: pKd

> print(dat)
   sequence.data  meas.value
1     AICSAVPTEW        6.13
2     SECPNERRAW        7.13
3     TEIASLPTYL        7.46
4      MEGVFHTMW        7.76
